- Target system: Microphthalmia-associated transcription factor (Homo sapiens)
- Assay: MITF inhibitors, retest of hits, confirmation, biochemical, AlphaScreen, triplicate (AID 1259372)
- Condition description: AlphaScreen MITF homodimerization, biotin/His-MITF beads; at 2.6 µM; hits give high values
The campaign covered roughly 4,700 compounds. About 760 (16%) were called active. A selection follows.
Measure: inhibition (%)

INSERT INTO results (molecule, target_system, measure, numeric_value) VALUES
  ('CCC(C)N1CCN(Cc2ccc(SC)cc2)CC1 (stereo unspecified)', 'Microphthalmia-associated transcription factor (Homo sapiens)', 'inhibition', 3.6),
  ('CCC(C)N1CCN(Cc2cccc(OC)c2)CC1 (stereo unspecified)', 'Microphthalmia-associated transcription factor (Homo sapiens)', 'inhibition', 13.4),
  ('CN1CCC(N(C)c2ncnc3scc(-c4ccc(Cl)cc4)c23)CC1', 'Microphthalmia-associated transcription factor (Homo sapiens)', 'inhibition', -5.93),
  ('COc1cc(NC(=O)CCc2nc(C3=CCN(C)CC3)no2)cc(OC)c1OC', 'Microphthalmia-associated transcription factor (Homo sapiens)', 'inhibition', 66.9),
  ('CSc1ccccc1NC(=O)CN(C)CC(=O)Nc1ccc(C#N)c(Cl)c1', 'Microphthalmia-associated transcription factor (Homo sapiens)', 'inhibition', 4.26),
  ('Fc1ccccc1CN1CCN(Cc2ccccc2F)CC1', 'Microphthalmia-associated transcription factor (Homo sapiens)', 'inhibition', 4.39);

Data provenance is PubChem BioAssay AID1259372.
